TGI listing for selected molecules.
System: COLO 205 colon
test_protocol: NCI tumour cell line growth inhibition, 48 h

Here's what some known entries look like.
{"molecule": "COc1ccc(/C=C/[N+](=O)[O-])cc1", "system_tested": "COLO 205 colon", "assay_metric": "TGI", "observed_value": "> 100 µM"}
{"molecule": "CN=S(=O)(C[C@]1(O)CC2OC1C1OC(C)(C)OC21)c1ccccc1 (stereo not given in full)", "system_tested": "COLO 205 colon", "assay_metric": "TGI", "observed_value": "> 100 µM"}

Input: Fill blank: measured TGI of the molecule "CC1=[N+]([O-])C(C)(C)N(O)C1(C)C" is ____.
Output: > 100 µM

Input: Recorded TGI of "Cc1ncc([N+](=O)[O-])n1CCNC(=O)CCn1ccnc1[N+](=O)[O-]" , please.
Output: > 100 µM

Input: For the molecule "C[C@]12CCC(=O)C=C1CC[C@@H]1[C@@H]2CC[C@]2(C)C(=O)/C(=C/c3cccc(OCCN4CCOCC4)c3)C[C@@H]12" , what TGI is on record?
Output: 25.5 µM
